Listing: T/C of selected compounds
Test system: L1210 leukemia ip in BDF1 mice, survival T/C
Test: NCI In Vivo Anticancer Drug Screen. Data for tumor model L1210 Leukemia (intraperitoneal) in B6D2F1 (BDF1) mice
Settings: endpoint: mean survival time; dose: 100.0 mg/kg/injection; schedule: Q04DX002 (ip); vehicle: Klucel (hydroxypropylcellulose) (HPC); higher = longer survival
Inconclusive results and toxic doses are left out.

{"columns": ["Compound", "T/C"],
 "data": [
  ["CC(C)(C)c1ccc(S(=O)(=O)Cl)cc1", "97 % of control"],
  ["CC1(C)CCC(C)(C)C(O)C1O (centres undefined)", "92 % of control"],
  ["NC(=O)Oc1c(Cl)cc(Cl)c(Cl)c1[N+](=O)[O-]", "97 % of control"],
  ["COc1ccc(C(=O)Nc2ccccc2)cc1NC(=S)Nc1ccccc1", "95 % of control"],
  ["CC(=O)NC(N)=S", "108 % of control"],
  ["O=C1C=C(c2ccccc2)C(=O)C2(c3ccccc3)C=CCC(c3ccccc3)C12 (centres undefined)", "113 % of control"],
  ["COC(=O)C1(C)CCCC2(C)C1CCC13CCC(C)(CCC21)C3O (centres undefined)", "103 % of control"],
  ["CCCCCCCCCCCCCCCCCCNC(=O)Nc1ccc(C)c(Cl)c1", "90 % of control"],
  ["CCS(=O)(=O)C1C2CCC(O2)C1S(=O)(=O)CC (centres undefined)", "94 % of control"]
]}

* * *

Test system: L1210 leukemia ip in BDF1 mice, survival T/C
Assay: NCI In Vivo Anticancer Drug Screen. Data for tumor model L1210 Leukemia (intraperitoneal) in B6D2F1 (BDF1) mice
Settings: endpoint: mean survival time; dose: 400.0 mg/kg/injection; schedule: Q04DX003 (ip); vehicle: Klucel (hydroxypropylcellulose) (HPC); higher = longer survival
Toxic doses and inconclusive results are not listed.
# T/C values compiled below
Observable: T/C

{"columns": ["Molecule", "Observable", "Result"],
 "data": [
  ["Cc1cc(=O)[nH]c2c(OCOc3cccc4c(C)cc(=O)[nH]c34)cccc12", "T/C", "94 % of control"],
  ["CCOC(=O)c1c(N)sc(C)c1C", "T/C", "97 % of control"],
  ["O=C1OC2(CCCCC2)c2ccccc21", "T/C", "105 % of control"],
  ["CC(=O)OC1OC(C[Se][As](C)C)C(OC(C)=O)C(OC(C)=O)C1OC(C)=O (configuration not stated)", "T/C", "95 % of control"],
  ["CC(=O)Nc1ccc2ccccc2c1Br", "T/C", "95 % of control"],
  ["CC(=O)NC1CON(C(C)=O)C1=O (configuration not stated)", "T/C", "103 % of control"],
  ["C=CCS(=O)(=O)c1ccc(C)cc1", "T/C", "100 % of control"]
]}

* * *

Test system: L1210 leukemia ip in BDF1 mice, survival T/C
Test: NCI In Vivo Anticancer Drug Screen. Data for tumor model L1210 Leukemia (intraperitoneal) in B6D2F1 (BDF1) mice
Settings: endpoint: mean survival time; dose: 50.0 mg/kg/injection; schedule: Q01DX001 (ip); vehicle: carboxymethylcellulose (CMC); higher = longer survival
Inconclusive results and toxic doses are left out.
# Lookup of reported T/C keyed by entry
Observable: T/C

{"columns": ["Compound", "Study target", "Result"],
 "data": [
  ["CN(C)N=Nc1ccccc1", "L1210 leukemia ip in BDF1 mice, survival T/C", "97 % of control"],
  ["CC(=O)OC1CC2C=CC1CC2 (configuration not stated)", "L1210 leukemia ip in BDF1 mice, survival T/C", "111 % of control"],
  ["Cc1ccc(N2C(=O)CCC2=O)c(C)c1", "L1210 leukemia ip in BDF1 mice, survival T/C", "104 % of control"],
  ["Ic1ccc(N=Cc2cccs2)cc1", "L1210 leukemia ip in BDF1 mice, survival T/C", "100 % of control"],
  ["O=[N+]([O-])c1ccc(/C=N\\NC(=S)Nc2ccc3cn[nH]c3c2)cc1", "L1210 leukemia ip in BDF1 mice, survival T/C", "91 % of control"],
  ["COc1cc(N(CCCl)CCCl)c(OC)cc1/C=N\\Nc1nnc(C)n1N", "L1210 leukemia ip in BDF1 mice, survival T/C", "120 % of control"],
  ["Nc1nc(N)nc(Cc2nc(N)nc(N)n2)n1", "L1210 leukemia ip in BDF1 mice, survival T/C", "90 % of control"]
]}
